The reported measurements were obtained from patent US20220195023A1.

Below, each of the binders is paired with its reported pKd value.
# EXPERIMENTAL SYSTEM: (NVDP)3(NANP)2 (Plasmodium falciparum)
# ASSAY PROTOCOL: BLI, target on sensor
pKd is defined as minus the log10 of a concentration measured in mol/L.

The cases that follow already have their pKd on record.
>>> value_measured("AB-007032 (antibody, V domains shown) VH: QVQLVESGGGVVQPGRSLRLSCAASGFTFSTYAMHWVRQAPGQGLQWVAVISYHSTNKYYEDSVRGRFTISRDNSKNTLYLQMNSLRAEDTAVYYCARDGYSSSFFDFWGQGTLVTVSS VL: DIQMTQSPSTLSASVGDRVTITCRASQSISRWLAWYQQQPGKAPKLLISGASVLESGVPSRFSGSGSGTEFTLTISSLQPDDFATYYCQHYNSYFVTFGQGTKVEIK")
8.18
>>> value_measured("AB-007051 (antibody, V domains shown) VH: QMQLVESGGGVVQPGRSLRLSCTASGFTFSTYAMHWVRQSPGQGLQWVAVISYHSRNKYYEDSVRGRFTISRDNSKNTLYLQMNSLRAEDTAVYYCARDGYSSSFFDFWGQGTLVTVSS VL: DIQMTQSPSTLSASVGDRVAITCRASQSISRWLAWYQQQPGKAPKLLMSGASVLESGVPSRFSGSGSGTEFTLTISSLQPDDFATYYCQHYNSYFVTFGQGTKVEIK")
8.31

Q: Entry AB-007059 (antibody, V domains shown) VH: QMQLVESGGGVVQPGRSLRLSCTASGFTFSTYAMHWVRQSPGQGLQWVAVISYHSTNKYYEDSVRGRFTISRDNSKNTLYLQMNSLRAEDTAVYYCARDGYSSTFFDFWGQGTLVTVSS VL: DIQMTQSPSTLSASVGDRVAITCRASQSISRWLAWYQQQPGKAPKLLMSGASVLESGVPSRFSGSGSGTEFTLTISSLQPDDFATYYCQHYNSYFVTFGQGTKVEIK : reported pKd = ?
Result: 7.70
